- studySystem: F36L mutant FKBP (Homo sapiens, UniProt P62942, F37L)
- Sequence (P62942 2-108 F37L): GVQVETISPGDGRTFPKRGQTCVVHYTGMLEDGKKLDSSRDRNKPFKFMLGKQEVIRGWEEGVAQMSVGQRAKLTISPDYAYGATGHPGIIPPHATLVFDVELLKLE
- procedureSummary: Competitive Binding FP Assay
- assayContext: Synthetic Monomers table; normalized to value of FK506 run in the same experiment; read-out: F36L IC50
For each entry below, report its IC50 value.
Supply the numeric figure in nM, leaving out any unit text.

Param item = COc1ccc(CCC(OC(=O)C2CCCCN2C(=O)C(c2ccccc2)C2CCCC2)c2cccc(OCC(=O)O)c2)cc1OC (mixture of isomers) ; retrieve measured IC50. 32

Param item = COc1ccc(CC[C@@H](OC(=O)[C@@H]2CCCCN2C(=O)[C@H](C)c2ccccc2)c2cccc(OCC(=O)O)c2)cc1OC ; retrieve measured IC50. 1400

Param item = COc1ccc(CC[C@@H](OC(=O)[C@@H]2CCCCN2C(=O)[C@@H](C)c2ccccc2)c2cccc(OCC(=O)O)c2)cc1OC ; retrieve measured IC50. 92

Param item = COc1ccc(CC[C@@H](OC(=O)[C@@H]2CCCCN2C(=O)C(c2ccccc2)c2ccccc2)c2cccc(OCC(=O)O)c2)cc1OC ; retrieve measured IC50. 684

Param item = COc1ccc(CCC(OC(=O)C2CCCCN2C(=O)C(Cc2ccccc2)c2ccccc2)c2cccc(OCC(=O)O)c2)cc1OC (mixture of isomers) ; retrieve measured IC50. 217

* * *

- studySystem: mutant (F36V) FKBP
- procedureSummary: Competitive Binding FP Assay
- Design: species or system human
- assayContext: Synthetic Multimerizers table; monomer value in brackets; mean of duplicates; normalized to FK506 = […] (substituted phenyl/lower aliphatic series: to AP1903 values); read-out: FKBPF36V binding affinity IC50
property: pIC50
# pIC50 is unitless: minus log10 of the molar concentration; print number only

Param item = CC[C@H](C(=O)N1CCCC[C@H]1C(=O)O[C@H](CCc1ccc(OC)c(OC)c1)c1cccc(OCC(=O)O)c1)c1cc(OC)c(OC)c(OC)c1 [AP1867] ; retrieve measured pIC50. 8.74

Param item = CCC(C(=O)N1CCCC[C@H]1C(=O)O[C@H](CCc1ccc(OC)c(OC)c1)c1cccc(OCC(=O)O)c1)c1ccc2c(c1)OCO2 (stereo partly drawn) [AP1839] ; retrieve measured pIC50. 8.27

Param item = CCC(C(=O)N1CCCC[C@H]1C(=O)O[C@H](CCc1ccc(OC)c(OC)c1)c1cccc(OCC(=O)NCCNC(=O)COc2cccc([C@@H](CCc3ccc(OC)c(OC)c3)OC(=O)[C@@H]3CCCCN3C(=O)C(CC)c3ccc4c(c3)OCO4)c2)c1)c1ccc2c(c1)OCO2 (stereo partly drawn) [AP1885] ; retrieve measured pIC50. 7.23

Param item = CCC(CC)NC(=O)N1CCCC[C@H]1C(=O)O[C@H](CCc1ccc(OC)c(OC)c1)c1cccc(OCC(=O)NCCNC(=O)COc2cccc([C@@H](CCc3ccc(OC)c(OC)c3)OC(=O)[C@@H]3CCCCN3C(=O)NC(CC)CC)c2)c1 [AP1966] ; retrieve measured pIC50. 7.24

Param item = CC[C@H](C(=O)N1CCCC[C@H]1C(=O)O[C@H](CCc1ccc(OC)c(OC)c1)c1cccc(OCC(=O)NCCNC(=O)COc2cccc([C@@H](CCc3ccc(OC)c(OC)c3)OC(=O)[C@@H]3CCCCN3C(=O)[C@@H](CC)c3ccccc3)c2)c1)c1ccccc1 [AP1889] ; retrieve measured pIC50. 5.00

Param item = CC[C@H](C(=O)N1CCCC[C@H]1C(=O)O[C@H](CCN1CCOCC1)c1cccc(OCC(=O)O)c1)c1cc(OC)c(OC)c(OC)c1 [AP14246] ; retrieve measured pIC50. 7.78

* * *

- studySystem: F36L mutant FKBP (Homo sapiens, UniProt P62942, F37L)
- procedureSummary: Competitive Binding FP Assay
- assayContext: read-out: F36L IC50
For each entry below, report its pIC50 value.
# pIC50 is unitless: minus log10 of the molar concentration; print number only

Param item = CCC(C(=O)N1CCCC[C@H]1C(=O)O[C@H](CCc1ccc(OC)c(OC)c1)c1cccc(OCC(=O)O)c1)c1ccc2c(c1)OCO2 (some centres unmarked) ; retrieve measured pIC50. 7.24

Param item = COc1ccc(CC[C@@H](OC(=O)[C@@H]2CCCCN2C(=O)Cc2ccccc2)c2cccc(OCC(=O)O)c2)cc1OC ; retrieve measured pIC50. 5.45
